- Tested on: P. falciparum 3D7 gametocytes
- protocol.summary: alamarBlue gametocyte viability assay, strain 3D7
- Format: cell-based, Plasmodium falciparum
- protocol.conditions: Malaria Box; DMSO set at 0%, 100 nM epoxomicin set at -100%
Measured Max Resp values are reported for all entries that follow.
Field: numeric (%). Do not append units.

>>> print(df.to_string())
                                   compound  test_result
0  COc1ccc(C(=O)C2CC2c2ccc(Cl)cc2)cc1 (stereo not shown) [MMV665924]          -23
1  Oc1c(CN2CCN(c3ccccc3F)CC2)cc(Br)c2cccnc12 [MMV000760]          -91
2  Nc1ccn([C@@H]2O[C@H](CO)[C@@H](O)[C@H]2O)c(=O)n1 [MMV638723]           -5
3  CCOc1ccc(/C=C/c2nc(=O)c3ccccc3o2)cc1 [MMV665940]           46
4  CC(C)(C)CC(C)(C)NCC(O)COc1ccc(Cl)cc1Cl (stereo not shown) [MMV396794]         -106
5  Cc1cc(C)c2c(c1)OCN(Cc1ccccc1Cl)C2 [MMV006558]          -44
6  Cc1ccc(CSCc2ccc(C(=O)NC3CC3)o2)cc1 [MMV007571]            6
7  Cc1ccc(Cn2c(N3CCC(C(=O)NCc4cccs4)CC3)nc3ccccc32)cc1 [MMV007564]          -54

Check the records and state Max Resp for CC(C)(C)c1ccc(C(=O)Nc2nc3ccccc3s2)cc1 [MMV142383]
-10

Look up and report measured Max Resp for this entry: CCc1c(C)c(=N)c2ccccc2n1C.I [MMV006278]
-52

Using the record for Cc1cc(Nc2ccc3ccccc3c2)n2ncnc2n1 [MMV011099] , state its measured Max Resp.
-5

###

- Test system: P. falciparum HB3 gametocytes
- protocol.summary: alamarBlue gametocyte viability assay, strain HB3
- Assay type: cell-based, Plasmodium falciparum
- protocol.conditions: Plasmodium falciparum, HB3, strain profiling; 11 concentrations, 1:3 dilution, three times; read-out: HB3-gametocytes IC50
In plain terms, low IC50, meaning strictly below 100 nM, gives Met, and everything else gives Not met.

Recorded results for 6 compounds are shown here.
In [3]: df
Out[3]:
                                   compound             measurement_target  assigned_label
0                CCN(CC)C(=S)SSC(=S)N(CC)CC  P. falciparum HB3 gametocytes         Not met
1  CC(C)C[C@H](NC(=O)[C@H](CCc1ccccc1)NC(=O)CN1CCOCC1)C(=O)N[C@@H](Cc1ccccc1)C(=O)N[C@@H](CC(C)C)C(=O)[C@@]1(C)CO1  P. falciparum HB3 gametocytes             Met
2  CCC(=O)N1CCN(c2ccc(-n3c(=O)ccc4cnc5ccc(-c6cnc7ccccc7c6)cc5c43)cc2C(F)(F)F)CC1  P. falciparum HB3 gametocytes         Not met
3  C#Cc1cccc(Nc2ncnc3cc(OC)c(OCCCCCCC(=O)NO)cc23)c1  P. falciparum HB3 gametocytes         Not met
4                 c1ccc2c(c1)[I+]c1ccccc1-2  P. falciparum HB3 gametocytes         Not met
5               O=C1C(=O)c2ncccc2-c2cccnc21  P. falciparum HB3 gametocytes             Met

Hello, I'm reviewing records and need to know if IC50 of "COc1cccc2c1C(=O)c1c(O)c3c(c(O)c1C2=O)C[C@@](O)(C(=O)CO)C[C@@H]3O[C@H]1C[C@H](N)[C@H](O)[C@H](C)O1" is below 100 nM. Could you check?
Not met

Item "CC1=C(CO)C(=O)O[C@@H]([C@@H](C)[C@H]2CC[C@H]3[C@@H]4C[C@H]5O[C@]56[C@@H](O)C=CC(=O)[C@]6(C)[C@H]4CC[C@]23C)C1" : IC50 beneath 100 nM, strictly?
Not met

API: query returns whether the compound falls strictly under 100 nM in IC50. Query: "COc1ccc2nc3cc(Cl)ccc3c(Nc3cc(CN4CCCC4)c(O)c(CN4CCCC4)c3)c2n1"
Not met

###

Listed below: Max Resp values for each entry.
- System: P. falciparum 3D7 gametocytes
- protocol.summary: alamarBlue gametocyte viability assay, strain 3D7
- Type: cell-based, Plasmodium falciparum
- protocol.conditions: Malaria Box; DMSO set at 0%, 100 nM epoxomicin set at -100%

                                   compound  assay_endpoint  test_result
0  CC(=O)Nc1nnc(SCc2c(C)cc(C(C)(C)C)cc2C)s1 [MMV020700]        Max Resp          -2%
1  COc1ccc(N2CCN(C(CNC(=O)CC(C)(C)C)c3ccc4c(c3)OCO4)CC2)cc1 (stereo not drawn) [MMV665908]        Max Resp         -26%
2  COc1cc2c3cc1Oc1c(OC)c(OC)cc4c1C(Cc1ccc(O)c(c1)Oc1ccc(cc1)CC3N(C)CC2)N(C)CC4.Cl (stereo not drawn) [MMV007474]        Max Resp         -93%
3  COc1ccc(NC(=O)C2c3ccccc3C(=O)N(CC(C)C)C2c2cccs2)cc1 (stereo not drawn) [MMV000662]        Max Resp         -81%
4  COc1cccc(C(=O)NC(c2ccc(C)cc2)c2cc(Cl)c3cccnc3c2O)c1 (stereo not drawn) [MMV665969]        Max Resp         -76%

Indicate the recorded Max Resp value for this compound: COc1ccc(-c2nc3cc(Cc4ccc5[nH]c(-c6ccc(OC)cc6)nc5c4)ccc3[nH]2)cc1 [MMV007384]
-59%

Provide only the value of recorded Max Resp for CC1CCN(Cc2c(O)ccc3cc(-c4nc5ccccc5s4)c(=O)oc23)CC1 [MMV009127]
-72%

Identify the reported Max Resp for the following entry. CCOC(=O)c1c[nH]c2ccc(CC)cc2c1=O [MMV007116]
32%

Let me know recorded Max Resp for CSc1ccccc1C(=O)Nc1nc(-c2ccccn2)cs1 [MMV001246] , thanks.
-72%

###

- Tested on: P. falciparum 3D7 gametocytes
- protocol.summary: alamarBlue gametocyte viability assay, strain 3D7
- Format: cell-based, Plasmodium falciparum
- protocol.conditions: Malaria Box; DMSO set at 0%, 100 nM epoxomicin set at -100%
Entries and their Max Resp
Unit % implied. Number only.

A selection of reference data follows.
                                   molecule             measurement_target  assay_endpoint  test_result
0  COc1ccc(C2NCCc3c2[nH]c2ccccc32)cc1CN1CCN(c2ccc(F)cc2)CC1.Cl (stereo not drawn)  P. falciparum 3D7 gametocytes        Max Resp          -89
1  COC(=O)c1ccc(Cl)c2c1C1C=CCC1C(c1cccc3ccccc13)N2 (stereo not drawn)  P. falciparum 3D7 gametocytes        Max Resp            1
2  CN(C)c1ccc(C(O)(c2ccc(N(C)C)cc2)c2ccc(N(C)C)cc2)cc1  P. falciparum 3D7 gametocytes        Max Resp         -118
3       Cc1cc(NC(=O)c2ccc(-c3ccccc3)cc2)no1  P. falciparum 3D7 gametocytes        Max Resp           14
4  Cc1ccc(N2C(=O)C3C(C2=O)C2(c4ccccc4)C(=O)C3(c3ccccc3)C(c3ccccc3)=C2c2ccccc2)cc1 (stereo not drawn)  P. falciparum 3D7 gametocytes        Max Resp           12

Below: the item to evaluate.
Identify the reported Max Resp for the following entry. "COc1cc(C(=O)Nc2nc3c(cc4c5c(cccc53)CC4)s2)cc(OC)c1OC"
-24

###

- System: P. falciparum 3D7 gametocytes
- protocol.summary: alamarBlue gametocyte viability assay, strain 3D7
- Assay type: cell-based, Plasmodium falciparum
- protocol.conditions: Malaria Box; DMSO set at 0%, 100 nM epoxomicin set at -100%
Measured Max Resp of individual entries
Numbers only here, please. The scale is %.

Please indicate Max Resp recorded for "Cc1ccc(NC(=O)Nc2cccc(Cl)c2)cc1F"
-36

###

- Tested on: P. falciparum 3D7 gametocytes
- protocol.summary: alamarBlue gametocyte viability assay, strain 3D7
- Format: cell-based, Plasmodium falciparum
- protocol.conditions: Malaria Box; DMSO set at 0%, 100 nM epoxomicin set at -100%
assay.endpoint: Max Resp (%)
Return type: number; implicit unit %.

Below are worked cases with known answers.
In [3]: df
Out[3]:
                                   molecule  assay_endpoint  test_result
0   O=C(Nc1ccc(Cl)c(Cl)c1)Nc1ccc(Cl)c(Cl)c1        Max Resp          -88
1  Cc1ccc(-c2nc3ccccc3o2)cc1NCc1cc(Cc2ccccc2)ccc1O        Max Resp          -63
2  COc1ccc(CNC(=O)c2cc3c(=O)n4ccccc4nc3n(CCc3ccccc3)c2=N)cc1        Max Resp          -29
3  Cc1ccc2nc(C)cc(Nc3cccc(C(F)(F)F)c3)c2c1.Cl        Max Resp          -52
4  Oc1ccc(-c2nc(-c3ccc4oc5ccc(-c6[nH]c(-c7ccc(O)cc7)nc6-c6ccccc6)cc5c4c3)c(-c3ccccc3)[nH]2)cc1        Max Resp          -68

Identify measured Max Resp associated with CN1C=C(c2ccc3ccccc3n2)C(c2c[nH]c3ccccc23)c2ccccc21 (centres unmarked)
-87

Please indicate Max Resp recorded for "CCN(Cc1ccccc1)C1CCN(Cc2cc(Br)ccc2O)CC1.O=C(O)C(=O)O"
-56

Return the recorded Max Resp value; entry: "CCOC(=O)c1c(C)n(-c2ccc(Cl)cc2)c2ccc(OC(=O)C=Cc3ccccc3)cc12"
2
